- TEST_SYSTEM: CDK9/CyclinD3 (Homo sapiens (Human), UniProt P50750)
- Sequence (P50750 whole entry): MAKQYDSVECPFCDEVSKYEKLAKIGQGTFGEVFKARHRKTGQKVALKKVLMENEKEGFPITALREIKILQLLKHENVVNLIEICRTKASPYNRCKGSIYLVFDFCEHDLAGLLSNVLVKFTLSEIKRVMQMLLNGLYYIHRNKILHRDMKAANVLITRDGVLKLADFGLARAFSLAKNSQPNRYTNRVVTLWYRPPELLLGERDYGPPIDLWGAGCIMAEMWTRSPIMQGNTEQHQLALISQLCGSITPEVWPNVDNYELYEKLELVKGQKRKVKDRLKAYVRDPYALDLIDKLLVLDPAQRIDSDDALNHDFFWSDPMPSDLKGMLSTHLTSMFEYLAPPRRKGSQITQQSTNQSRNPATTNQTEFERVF
- Sequence (O75909 whole entry partner): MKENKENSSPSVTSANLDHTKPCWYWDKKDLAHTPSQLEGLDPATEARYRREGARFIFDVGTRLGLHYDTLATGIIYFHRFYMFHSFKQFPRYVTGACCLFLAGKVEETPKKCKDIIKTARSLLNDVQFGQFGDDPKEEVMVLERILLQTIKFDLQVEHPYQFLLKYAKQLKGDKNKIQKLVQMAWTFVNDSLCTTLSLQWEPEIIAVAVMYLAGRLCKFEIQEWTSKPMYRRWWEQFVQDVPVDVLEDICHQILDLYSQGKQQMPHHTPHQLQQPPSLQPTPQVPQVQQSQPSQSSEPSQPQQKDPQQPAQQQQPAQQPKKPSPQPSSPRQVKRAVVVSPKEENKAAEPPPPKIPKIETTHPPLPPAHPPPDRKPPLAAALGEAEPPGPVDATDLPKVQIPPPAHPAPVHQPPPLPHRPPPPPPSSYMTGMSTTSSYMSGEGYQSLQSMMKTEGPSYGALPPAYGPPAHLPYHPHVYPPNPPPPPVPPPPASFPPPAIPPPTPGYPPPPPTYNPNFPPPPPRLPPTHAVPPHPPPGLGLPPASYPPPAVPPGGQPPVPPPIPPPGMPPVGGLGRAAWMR
- EXPERIMENT_DESCRIPTION: Kinase inhibitory activity, ADP-Glo Kinase Assay, CDK9/CyclinD3
REPORTED_PROPERTY: IC50 (nM)

Solved entries (count: 8):
COMPOUND: CC1=Nc2c(F)cc(-c3nc(Nc4ccc(N5CCNCC5)cn4)ncc3F)cc2C12CCCC2
IC50 (nM): 0.42
//
COMPOUND: CC1=Nc2c(F)cc(-c3nc(Nc4ccc(N5CCN(C)CC5)cn4)ncc3F)cc2C12CCCC2
IC50 (nM): 0.24
//
COMPOUND: CCN1CCC(c2ccc(Nc3ncc(F)c(-c4cc(F)c5c(c4)C4(CCCC4)C(C)=N5)n3)nc2)CC1
IC50 (nM): 57.2
//
COMPOUND: CC1=Nc2c(F)cc(-c3nc(Nc4ccc(N5CCNCC5)cn4)ncc3F)cc2C1(C)C
IC50 (nM): 245
//
COMPOUND: CCC1(C)C(C)=Nc2c(F)cc(-c3nc(Nc4ccc(C5CCN(C)CC5)cn4)ncc3F)cc21 (stereo not shown)
IC50 (nM): 1.74
//
COMPOUND: CCC1(C)C(C)=Nc2c(F)cc(-c3nc(Nc4ccc(N5CCN(C)CC5)cn4)ncc3F)cc21 (stereo not shown)
IC50 (nM): 1
//
COMPOUND: CC1=Nc2c(F)cc(-c3nc(Nc4ccc(C5CCNCC5)cn4)ncc3F)cc2C12CCCC2
IC50 (nM): 2.56
//
COMPOUND: CCN1CCN(c2ccc(Nc3ncc(F)c(-c4ccc5c(c4)C4(CCCC4)C(C)=N5)n3)nc2)CC1
IC50 (nM): 0.5

[P] CC1=Nc2c(F)cc(-c3nc(Nc4ccc(N5CCN(CCO)CC5)cn4)ncc3F)cc2C12CCCC2
[Q] CC1=Nc2c(F)cc(-c3nc(Nc4ccc(C5CCN(CCO)CC5)cn4)ncc3F)cc2C12CCCC2
Select one. Lower IC50: P or Q Identify your pick by its label.
Q

[I] CCN1CCC(c2ccc(Nc3ncc(F)c(-c4cc(F)c5c(c4)C(C)(CC)C(C)=N5)n3)nc2)CC1 (stereo not shown)
[II] CC1=Nc2ccc(-c3nc(Nc4ccc(N5CCN(C)CC5)cn4)ncc3F)cc2C12CCCC2
[III] CCN1CCN(Cc2ccc(Nc3ncc(F)c(-c4cc(F)c5c(c4)C(CC)(CC)C(C)=N5)n3)nc2)CC1
Rank the items in ascending order with respect to IC50. Response format: the labels, sorted as the prompt asks.
II, I, III
(II: 1.09 nM, I: 11 nM, III: 27 nM)
